# assayed target: FLuc-C-NLuc (firefly luciferase) (Photinus pyralis, UniProt P08659, form not given/L550V)
# Sequence (P08659 2-550 L550V, form open): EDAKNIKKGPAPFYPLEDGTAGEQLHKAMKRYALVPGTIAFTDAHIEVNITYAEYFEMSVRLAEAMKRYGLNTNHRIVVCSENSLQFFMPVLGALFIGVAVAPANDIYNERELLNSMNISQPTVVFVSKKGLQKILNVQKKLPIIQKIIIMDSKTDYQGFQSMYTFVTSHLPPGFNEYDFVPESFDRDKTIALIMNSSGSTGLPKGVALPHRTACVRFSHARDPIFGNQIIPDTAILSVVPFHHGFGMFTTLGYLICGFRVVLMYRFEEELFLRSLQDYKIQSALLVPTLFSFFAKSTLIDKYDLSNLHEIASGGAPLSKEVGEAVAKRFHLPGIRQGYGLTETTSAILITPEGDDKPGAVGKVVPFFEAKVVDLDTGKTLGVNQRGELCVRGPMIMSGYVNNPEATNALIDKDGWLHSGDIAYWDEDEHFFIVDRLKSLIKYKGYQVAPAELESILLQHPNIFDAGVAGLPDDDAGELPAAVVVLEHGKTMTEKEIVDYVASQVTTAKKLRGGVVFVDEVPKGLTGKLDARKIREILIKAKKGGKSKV
# assay notes: Firefly luciferase (FLuc) enzymatic luminescence assay, FLuc-C-NLuc
# Type: biochemical
# Set-up: key: % normalized; no enzyme control = 100% inhibition, DMSO = 0
# condition label: Log[Compound], M -4.96
# Method: The enzyme activity of FLuc-N-HiBiT, FLuc-C-HiBiT, and FLuc-C-NLuc was measured similar to P. pyralis firefly luciferase (FLuc) as previously described. […] Luciferin was incubated with FLuc enzyme for 5 min before FLuc activity was then measured on a ViewLux CCD imager (PerkinElmer), with exposure times up to ten seconds with medium to high gain settings. […] 5 Detector ViewLux Read plate lum inescence (Exposure = 1- 10 sec; Gain = Medium -high; Speed = Slow; […]
experimental readout: Enz
Answer field: number only, no words.

The cases that follow already have their Enz on record.
# molecule, Enz
rows = [
    ("CC(CNC(=O)C1CCN(C(=O)c2ncn3c2COC(c2ccccc2)C3)CC1)c1ccccc1 (centres unmarked)", -73.93),
    ("CC1CCC(NC(=O)C2CCN(C(=O)c3ncn4c3COC(c3ccc(Cl)cc3)C4)CC2)CC1 (centres unmarked)", 2.86),
    ("CC(NC(=O)C1CCN(C(=O)c2ncn3c2COC(c2ccc(F)cc2)C3)CC1)c1ccc(F)cc1 (centres unmarked)", 0.62),
    ("COc1ccc(NC(=O)C2CCN(C(=O)c3ncn4c3COC(c3ccccc3)C4)CC2)cc1Cl (centres unmarked)", -85.33),
]

Summary for this molecule, O=C(Nc1cccc(F)c1)C1CCN(C(=O)c2ncn3c2COC(c2ccccc2)C3)CC1 (centres unmarked) : Enz is -88.02

###

# assayed target: FLuc-C-HiBiT (Photinus pyralis)
# Construct: firefly luciferase with C-terminal HiBiT tag, E. coli expressed
# assay notes: biochemical
# condition label: enzyme activity, 10 uM ATP; read-out: IC50 or SDR50 (mM) / FLuc E
# Procedure: The enzyme activity of FLuc-N-HiBiT, FLuc-C-HiBiT, and FLuc-C-NLuc was measured similar to P. pyralis firefly luciferase (FLuc) as previously described. […] Compounds and controls were added to each plate as described in Supplementary Data 8 with a Hornet pintool system (Wako Automation). […] Luciferin was incubated with FLuc enzyme for 5 min before FLuc activity was then measured on a ViewLux CCD imager (PerkinElmer), with exposure times up to ten seconds with medium to high gain settings. […]
Flag rule - IC50 less than 2 µM flags TRUE; the remaining entries get FALSE.

Worked examples, 3 molecules total:
# molecule, assayed target, assigned category
rows = [
    ("C[S+](=O)([O-])CCn1ncc2cc(OCc3cccc(-c4cccnc4)c3)ccc21 [NCGC00418034-01]", "FLuc-C-HiBiT (Photinus pyralis)", "FALSE"),
    ("O=C(NCCc1ccccc1)C1CCN(C(=O)c2ncn3c2COC(c2ccccc2)C3)CC1 (centres unmarked) [NCGC00449794-01]", "FLuc-C-HiBiT (Photinus pyralis)", "FALSE"),
    ("O=C(O)c1cccc(-c2noc(-c3cccc(F)c3)n2)c1 [NCGC00168760-01]", "FLuc-C-HiBiT (Photinus pyralis)", "TRUE"),
]

I wonder whether Nc1ncnc2c1ncn2[C@H]1O[C@H](CO)[C@@H](O)[C@@H]1O [NCGC00262556-01] has IC50 below 2 µM. Can you tell?
FALSE

I wonder whether Cc1cccc(-c2cccc(NC(=O)C3CCCN(C(=O)CC(F)(F)F)C3)c2)c1 (centres unmarked) [NCGC00425452-01] has IC50 below 2 µM. Can you tell?
FALSE

I wonder whether COc1cccc(-c2noc(Nc3ccc4c(c3)OCCO4)n2)c1 [NCGC00422372-01] has IC50 below 2 µM. Can you tell?
TRUE

I wonder whether Cc1ccc(C(=O)O)cc1Nc1nc2ccccc2n2nnnc12 [NCGC00106886-01] has IC50 below 2 µM. Can you tell?
FALSE

I wonder whether O=C1c2cnc(-c3cccc(CO)c3)nc2OCCN1c1cccc(C(F)(F)F)c1 [NCGC00413455-01] has IC50 below 2 µM. Can you tell?
FALSE

###

# assayed target: FLuc-C-HiBiT (Photinus pyralis, UniProt P08659)
# Construct: firefly luciferase with C-terminal HiBiT tag, E. coli expressed
# Sequence (P08659 whole entry, looked up): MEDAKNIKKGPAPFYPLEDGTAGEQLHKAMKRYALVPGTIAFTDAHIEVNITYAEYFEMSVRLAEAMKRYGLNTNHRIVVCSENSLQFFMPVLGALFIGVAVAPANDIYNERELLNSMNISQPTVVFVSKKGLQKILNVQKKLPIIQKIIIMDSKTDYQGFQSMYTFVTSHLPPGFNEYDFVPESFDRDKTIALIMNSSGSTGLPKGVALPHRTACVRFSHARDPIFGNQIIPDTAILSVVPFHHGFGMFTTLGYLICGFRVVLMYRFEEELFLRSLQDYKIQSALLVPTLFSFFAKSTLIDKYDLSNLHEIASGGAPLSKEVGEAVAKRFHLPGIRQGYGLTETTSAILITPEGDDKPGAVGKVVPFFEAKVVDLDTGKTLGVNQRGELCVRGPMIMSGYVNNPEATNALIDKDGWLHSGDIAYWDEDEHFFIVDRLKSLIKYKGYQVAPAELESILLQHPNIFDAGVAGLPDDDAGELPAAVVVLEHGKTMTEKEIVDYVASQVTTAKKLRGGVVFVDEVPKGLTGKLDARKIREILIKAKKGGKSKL
# assay notes: biochemical
# condition label: enzyme activity, 10 uM ATP; read-out: IC50 or SDR50 (mM) / FLuc E
experimental readout: IC50

The cases that follow already have their IC50 on record.
# compound, assayed target, result
data = [
    ("O=C(c1ccc2oc(-c3cccc(F)c3)nc2c1)N1CCCCC1CCO (centres unmarked)", "FLuc-C-HiBiT (Photinus pyralis, UniProt P08659)", "0.014 mM"),
    ("Cc1cccc(C(=O)Nc2ccc(-c3nc4ccccc4s3)cc2Cl)c1", "FLuc-C-HiBiT (Photinus pyralis, UniProt P08659)", "> 0.03 mM"),
    ("COc1cccc(C(=O)Nc2cccc(OCc3cc(=O)n4c5c(sc4n3)CCCC5)c2)c1", "FLuc-C-HiBiT (Photinus pyralis, UniProt P08659)", "0.00989 mM"),
    ("COc1ccc(-c2cn3nc(SCC(=O)Nc4ccccc4F)ccc3n2)cc1", "FLuc-C-HiBiT (Photinus pyralis, UniProt P08659)", "0.00157 mM"),
    ("O=C1NCCCCCCN(C(=O)Nc2ccc3c(c2)OCCO3)[C@H]2CCCC[C@@H]12", "FLuc-C-HiBiT (Photinus pyralis, UniProt P08659)", "0.00881 mM"),
]

Summary for this compound, "COc1ccc(CCNc2nc3ccccc3c3nc(-c4cccc(C)c4)nn23)cc1OC" : IC50 is 0.0111 mM

Summary for this compound, "CC[n+]1c(/C=C/N(C)c2ccccc2)n(-c2ccccc2)c2ccc(-c3nc4ccccc4s3)cc21" : IC50 is 0.0176 mM

Summary for this compound, "O=C1NCCCCCCN(Cc2ccncc2)[C@@H]2CN(C(=O)Nc3ccc4c(c3)OCCO4)CC[C@H]12" : IC50 is 0.0111 mM

###

# assayed target: FLuc-C-HiBiT (Photinus pyralis)
# Construct: firefly luciferase with C-terminal HiBiT tag, E. coli expressed
# assay notes: biochemical
# condition label: enzyme activity, 10 uM ATP; read-out: IC50 or SDR50 (mM) / FLuc E
experimental readout: IC50 (mM)
Numbers only here, please. The scale is mM.

The cases that follow already have their IC50 on record.
# smiles input, recorded number
data = [
    ("O=C(O)CCC1CCN(c2cc(NC3CC3)ncn2)CC1", 0.00313),
    ("COc1cccc(CC(=O)NCCn2ccn3nc(-c4ccc(C)c(C)c4)cc3c2=O)c1", 0.0111),
    ("CCN(c1ncnc2c1cnn2-c1cccc(Cl)c1)C1CCCCC1", 0.00556),
    ("Cc1ccc2cc(CN3CCN(CC(N)=O)CC3)c(-c3cccs3)nc2c1", 0.0124),
]

Summary for this molecule, "Cc1ccc(Nc2ncnc3c2nc2n3CCCC2)c(Br)c1" : IC50 is 0.00495

###

# assayed target: FLuc-C-NLuc (firefly luciferase) (Photinus pyralis, UniProt P08659, form not given/L550V)
# assay notes: Firefly luciferase (FLuc) enzymatic luminescence assay, FLuc-C-NLuc
# Assay type: biochemical
# Parameters: key: % normalized; no enzyme control = 100% inhibition, DMSO = 0
# condition label: Log[Compound], M -7.82
Here, each record is paired with measured Enz data.
Answer field: number only, no words.

The cases that follow already have their Enz on record.
# compound, experimental readout, recorded number
records = [
    ("CC1CCC(NC(=O)C2CCN(C(=O)c3ncn4c3COC(c3ccc(Cl)cc3)C4)CC2)CC1 (centres unmarked)", "Enz", 4.98),
    ("COc1ccc(NC(=O)C2CCN(C(=O)c3ncn4c3COC(c3ccccc3)C4)CC2)cc1Cl (centres unmarked)", "Enz", 7.65),
    ("CC(NC(=O)C1CCN(C(=O)c2ncn3c2COC(c2ccc(F)cc2)C3)CC1)c1ccc(F)cc1 (centres unmarked)", "Enz", 4.76),
    ("CC(CNC(=O)C1CCN(C(=O)c2ncn3c2COC(c2ccccc2)C3)CC1)c1ccccc1 (centres unmarked)", "Enz", 7.74),
]

Turning now to a further compound:
Summary for this compound, O=C(Nc1cccc(F)c1)C1CCN(C(=O)c2ncn3c2COC(c2ccccc2)C3)CC1 (centres unmarked) : Enz is -6.89

###

# assayed target: FLuc-C-HiBiT (Photinus pyralis)
# Construct: firefly luciferase with C-terminal HiBiT tag, E. coli expressed
# assay notes: biochemical
# condition label: enzyme activity, 10 uM ATP; read-out: IC50 or SDR50 (mM) / FLuc E
experimental readout: IC50

The cases that follow already have their IC50 on record.
# compound, IC50
measured = [
    ("O=C(Nc1ccccc1)C1CCN(C(=O)c2ncn3c2COC(c2ccccc2)C3)CC1 (stereo not drawn)", "0.00157 mM"),
    ("CCCCN(C)[S+](=O)([O-])c1ccc(C(=O)Nc2ccc(-c3nc4ccc(C)cc4s3)cc2)cc1", "> 0.03 mM"),
    ("CC(=O)N1CCNc2cc(-c3ccccc3F)ncc2C1", "0.0285 mM"),
    ("CN(C)c1ccc(-c2nc3ccccn3c2Nc2ccc3c(c2)OCCO3)cc1", "0.0111 mM"),
    ("COCCNc1ncc(-c2cccc(NC(C)=O)c2)c2c1OCC2", "0.0161 mM"),
    ("COc1cccc(-n2cc(CN(C)c3ncncn3)cn2)c1", "> 0.03 mM"),
    ("CCOC(=O)c1ccc(NC(=O)CSc2nnc(CNC(=O)c3ccc(OC)cc3)n2CC)cc1", "0.0124 mM"),
    ("O=C(Nc1cccc(-c2nc3ccccc3s2)c1)c1cc2ccccc2oc1=O", "> 0.03 mM"),
    ("Cc1ccc(C2=CC(c3ccccc3C)n3c(nc4ccccc43)N2)cc1 (stereo not drawn)", "0.00442 mM"),
    ("CCN(c1ncnc2c1cnn2-c1ccc(C)cc1)C1CCCCC1", "0.000881 mM"),
]

Value (IC50, FLuc-C-HiBiT (Photinus pyralis)) for record "O=C(/C=C/c1ccccc1)Nc1cc(-c2nc3cc(Cl)ccc3o2)ccc1Cl" = > 0.03 mM

Value (IC50, FLuc-C-HiBiT (Photinus pyralis)) for record "Cc1ccc(NC(=O)N2CCC(CCNC(=O)c3ccc(F)cc3)CC2)cc1F" = 0.0111 mM

Value (IC50, FLuc-C-HiBiT (Photinus pyralis)) for record "COc1ccccc1-c1nc(-c2ccc(C(=O)O)cc2)no1" = 0.00197 mM

Value (IC50, FLuc-C-HiBiT (Photinus pyralis)) for record COc1ccc2cc(C3CN(C(=O)CNC(=O)C(C)C)CCO3)ccc2c1 (stereo not drawn) = 0.0124 mM

Value (IC50, FLuc-C-HiBiT (Photinus pyralis)) for record Cc1c(-c2ccccc2F)[nH]c2ccc(CNC(=O)CC3CCC(=O)N3)cc12 (stereo not drawn) = 0.00989 mM
